Each recorded value in this set is attributed to ChEMBL document CHEMBL4342512.

test: Volume of distribution at steady state in mouse at 2 umol/kg, po and 1 umol/kg, iv administered using cassette dosing; assay type: ADME, organism-based; conditions: in vivo, read-out: Vdss
Could you please report measured Vd for the items listed next?
Reply with the number and its unit after it.

Worked cases, answers included:
# sample smiles, Vd
measured = [
    ("Cc1ccc(C(=O)Nc2cn3ncnc3c(CN3CCN(C(=O)CC(C(F)(F)F)C(F)(F)F)[C@@H](C)C3)c2C)cn1", "1.1 L/kg"),
    ("Cc1ccc(C(=O)Nc2cc(F)cc(CN3CCN(C(=O)C4CCCC4)[C@@H](C)C3)c2C)cn1", "1.6 L/kg"),
    ("Cc1ccc(C(=O)Nc2cn3ncnc3c(O[C@H]3CCN(C(=O)CC(C(F)(F)F)C(F)(F)F)[C@@H](C)C3)c2C)cn1", "0.8 L/kg"),
]

In the following, a different molecule is considered.
Lookup: Determine its reported Vd: Cc1ccc(C(=O)Nc2cn3ncnc3c(CN3CCN(C(=O)C4CCCC4)[C@@H](C)C3)c2C)cn1
Found: 0.77 L/kg

====

Kindly state CLH for each of the entries shown.
experiment: Metabolic stability in mouse liver microsomes assessed as intrinsic clearance; format: ADME, Microsome

The examples below pair each entry with its known result.
# sample smiles, endpoint result
records = [
    ("Cc1ccc(C(=O)Nc2cc(F)cc(CN3CCN(C(=O)C4CCCC4)[C@@H](C)C3)c2C)cn1", "110 µL/min/mg"),
    ("Cc1ccc(C(=O)Nc2cn3ncnc3c(CN3CCN(C(=O)C4CCCC4)[C@@H](C)C3)c2C)cn1", "11 µL/min/mg"),
    ("Cc1ccc(C(=O)Nc2cn3ncnc3c(O[C@H]3CCN(C(=O)CC(C(F)(F)F)C(F)(F)F)[C@@H](C)C3)c2C)cn1", "30 µL/min/mg"),
]

Proceeding to the next molecule to report its CLH.
Lookup: Give recorded CLH. Cc1ccc(C(=O)Nc2cn3ncnc3c(CN3CCN(C(=O)CC(C(F)(F)F)C(F)(F)F)[C@@H](C)C3)c2C)cn1
Found: < 10 µL/min/mg

====

assay: Apparent permeability across basolateral to apical side in human Caco2 cells; format: ADME, cell-based; details: Caco-2
observed property: Papp B→A
Give the value; after it, write the unit.

// solved cases for Papp B→A follow
# sample smiles, Papp B→A
data = [
    ("Cc1ccc(C(=O)Nc2cc(F)cc(CN3CCN(C(=O)C4CCCC4)[C@@H](C)C3)c2C)cn1", "55 ×10⁻⁶ cm/s"),
    ("Cc1ccc(C(=O)Nc2cn3ncnc3c(O[C@H]3CCN(C(=O)CC(C(F)(F)F)C(F)(F)F)[C@@H](C)C3)c2C)cn1", "51 ×10⁻⁶ cm/s"),
    ("Cc1ccc(C(=O)Nc2cn3ncnc3c(CN3CCN(C(=O)CC(C(F)(F)F)C(F)(F)F)[C@@H](C)C3)c2C)cn1", "36 ×10⁻⁶ cm/s"),
]

Lookup: Give me measured Papp B→A, please, for this compound: Cc1ccc(C(=O)Nc2cn3ncnc3c(CN3CCN(C(=O)C4CCCC4)[C@@H](C)C3)c2C)cn1
Found: 46 ×10⁻⁶ cm/s

====

experiment: Unbound clearance in mouse at 2 umol/kg, po and 1 umol/kg, iv administered using cassette dosing; format: ADME, organism-based; settings: in vivo
observed property: CL free (L/h/kg)
Answers are plain numbers, in L/h/kg.

# sample smiles, CL free / L/h/kg
rows = [
    ("Cc1ccc(C(=O)Nc2cn3ncnc3c(O[C@H]3CCN(C(=O)CC(C(F)(F)F)C(F)(F)F)[C@@H](C)C3)c2C)cn1", 1.1),
    ("Cc1ccc(C(=O)Nc2cn3ncnc3c(CN3CCN(C(=O)C4CCCC4)[C@@H](C)C3)c2C)cn1", 5.3),
    ("Cc1ccc(C(=O)Nc2cc(F)cc(CN3CCN(C(=O)C4CCCC4)[C@@H](C)C3)c2C)cn1", 46),
]

# next compound below
Lookup: Give recorded CL free. Cc1ccc(C(=O)Nc2cn3ncnc3c(CN3CCN(C(=O)CC(C(F)(F)F)C(F)(F)F)[C@@H](C)C3)c2C)cn1
Found: 4.5

====

test: Protein binding in mouse plasma; assay type: ADME, cell-free; conditions: read-out: PPB (converted)
Please provide measured fraction unbound for the entries that follow.

Please review the entries below; each comes with its answer.
# sample smiles, fraction unbound
data = [
    ("Cc1ccc(C(=O)Nc2cn3ncnc3c(CN3CCN(C(=O)C4CCCC4)[C@@H](C)C3)c2C)cn1", 0.212),
    ("Cc1ccc(C(=O)Nc2cc(F)cc(CN3CCN(C(=O)C4CCCC4)[C@@H](C)C3)c2C)cn1", 0.043),
]

Now look at this entry.
Lookup: Please list fraction unbound recorded for the molecule Cc1ccc(C(=O)Nc2cn3ncnc3c(CN3CCN(C(=O)CC(C(F)(F)F)C(F)(F)F)[C@@H](C)C3)c2C)cn1
Found: 0.233

====

Give measured CLH for each item. Keep answers brief.
assay: Metabolic stability in human liver microsomes assessed as intrinsic clearance; assay type: ADME, Microsome
One number for each entry, in µL/min/mg.

Here is how some compounds turned out for CLH.
# sample smiles, observed property, endpoint result
rows = [
    ("Cc1ccc(C(=O)Nc2cn3ncnc3c(CN3CCN(C(=O)CC(C)C)[C@@H](C)C3)c2C)cn1", "CLH", 20),
    ("Cc1ccc(C(=O)Nc2cn3ncnc3c(O[C@@H]3CCN(C(=O)CC(C(F)(F)F)C(F)(F)F)[C@@H](C)C3)c2C)cn1", "CLH", 28),
]

Lookup: State its CLH: Cc1ccc(C(=O)Nc2cc3nncn3c(CN3CCN(C(=O)C4CCCC4)[C@@H](C)C3)c2C)cn1
Found: 59
